Each record here notes measured gcPBM binding intensity (ln).
System: PfAP2-G AP2 domain (GST-tagged)
Test: gcPBM binding intensity (ln(normalized median fluorescence intensity)); higher = stronger DNA binding
Whole data set: some 25,000 sequences, median “ln(normalized median fluorescence intensity)” near 10, cut for the highest 2% near 12. The entries come from a sample that favours the highest values as a whole.
No unit in the answer, please; the number alone is enough.

stdin: Recorded gcPBM binding intensity (ln) for ATATATATATATATGTGTACACAACAAAATAAAAAA [XGTACX_site7378] , please?
stdout: 11.7

stdin: Reported gcPBM binding intensity (ln) for TAAGGTTAAATAATATGTACATATTATTATATATAT [XGTACX_site6953] : what is it?
stdout: 11.3

stdin: Can you share its gcPBM binding intensity (ln)? I mean this sequence: TTTTTTGAAAATAAAAGTACAAATTTTATATTTAAA [XGTACX_site2758]
stdout: 11

stdin: // returns reported gcPBM binding intensity (ln) for input AATACAATAAAAAAAAGTACACATGTATAAAAAATT [XGTACX_site8270]
stdout: 11.6

stdin: I am curious: what gcPBM binding intensity (ln) value has been reported for TTTTTTTTTTTTTTTACACACACAAAATATTATATG [CACACA_site2471] ?
stdout: 9.99

stdin: Request the reported gcPBM binding intensity (ln) associated with AAATGAAATAAATGTAGTACACATATACAATATATA [XGTACX_site6951]
stdout: 11.7

stdin: Look at this sequence and give its reported gcPBM binding intensity (ln). AATTAATGGGTACATACACACATATATACATACATA [CACACA_site742]
stdout: 11.4

stdin: Could you share which gcPBM binding intensity (ln) value was measured for ATTTTGTTCGAAAGGTGTACATATACAAAAATTATG [XGTACX_site957] ?
stdout: 11.7

stdin: Reported gcPBM binding intensity (ln), sequence TCTTGTTTATCAACAGCACACACAACAACAACAACA [CACACA_site8046] : ____
stdout: 10.1

stdin: Suppose we examine the sequence AATTTGAAATAAAGTAGTACAGTATATAAAAATATA [XGTACX_site128] ; what gcPBM binding intensity (ln) value has been reported?
stdout: 11.8

stdin: Which value of gcPBM binding intensity (ln) has been reported for TTATACATAAATTTTGTACACACAAAAAAAAAAAAG [CACACA_site8374] in the records?
stdout: 11.2

stdin: What value of measured gcPBM binding intensity (ln) is listed for ATATATTAAAACCTAGTGCATTTGTACATATTTCAA ?
stdout: 11

stdin: Tell me the measured gcPBM binding intensity (ln) of TCAAAAATAAAGATCACACATATATATATATATATA [CACACA_site4381] , please.
stdout: 10.3

stdin: Given the sequence GCTATATATTACAATCGTACAATATATATATATATA [XGTACX_site6730] , what is its reported gcPBM binding intensity (ln)?
stdout: 10.8

stdin: Quick one: gcPBM binding intensity (ln) of ATAATAAATTATTATGTACACACATAATAGTATATA [CACACA_site8538] ?
stdout: 11.3

stdin: Endpoint output: gcPBM binding intensity (ln) of GACAAAATGATAGGGACACACAATATCAATGTTTAA [CACACA_site765] . Value?
stdout: 10.7

----------
Test system: PfAP2-G AP2 domain (GST-tagged)
Test: gcPBM binding intensity (ln(normalized median fluorescence intensity)); higher = stronger DNA binding
In all, about 25,000 sequences were measured (“ln(normalized median fluorescence intensity)”: median about 10, highest 2% from about 12 on). The full list was thinned out, with the highest values kept by preference.
experimentalEndpoint: gcPBM binding intensity (ln)
Output: the number by itself.

Consider the following illustrative entries.
CATGCTTATATGTGCACACACAAAAGAAAAGAAAAA [CACACA_site1655] | 10.6
AAAATATTTAATAGAAGTACACATGTATATATACAT [XGTACX_site8942] | 11.6
AAAAAAAAAAGGTGTACATGCAAAATAAATTCTTAA [TGCATGCA_site556] | 11.6
AATTAATAAAAAAGGTGTACAGTAAATGCAATAATC [XGTACX_site7956] | 11.7
TTAGCTACACGCTAATGTACACAAATACAAAGAAAA [XGTACX_site3993] | 11.4

stdin: So what's the measured gcPBM binding intensity (ln) for this one? ATAACATACATAACAACACACAATATTTATATGTAT [CACACA_site210]
stdout: 9.85

stdin: What measured gcPBM binding intensity (ln) goes with AATGTGCCCACGCGTACACACAAAAAAAGAAAAAAA [CACACA_site2003] ?
stdout: 11.7

stdin: Item TATATAAACATCGGTAGTACACACATTCATGTATTT [XGTACX_site6443] has what recorded gcPBM binding intensity (ln)?
stdout: 11.5

stdin: Item under review: AAAATAATATATGTATGTACATATACACATATAGAA [XGTACX_site2218] . Reported gcPBM binding intensity (ln)?
stdout: 11.1

stdin: // gcPBM binding intensity (ln) lookup, key: AACAATTAGAACTTTGCACACTTCTATATATTTTGT [CACACA_site674]
stdout: 9.91

----------
Tested on: PfAP2-G AP2 domain (GST-tagged)
Assay: gcPBM binding intensity (ln(normalized median fluorescence intensity)); higher = stronger DNA binding
Over roughly 25,000 sequences, “ln(normalized median fluorescence intensity)” has its median near 10; the highest 2% begin near 12. Only a selection was taken, and the highest values are over-represented in it overall.
// reported gcPBM binding intensity (ln) per item

Reference set, count: 2
TATTTCTGATTATTTTGTACACATTATATATAATGC [XGTACX_site6990] | 11.2
ATATATATATATTTATGTACATATACATAATGTATA [XGTACX_site6387] | 11.2

stdin: Name the reported gcPBM binding intensity (ln) value associated with the sequence TGATTATCCTATATATATTTCATAATGGAAAAAAAT [TGCATGCA_negctrl_site444]
stdout: 9.89

stdin: Any idea what its gcPBM binding intensity (ln) is? The sequence is TAATCTTTCGTACATGTACACACAGAAAAAAAAAAA [CACACA_site8798]
stdout: 11.8

----------
Test system: PfAP2-G AP2 domain (GST-tagged)
Assay: gcPBM binding intensity (ln(normalized median fluorescence intensity)); higher = stronger DNA binding
The full ranking holds about 25,000 sequences; the median of “ln(normalized median fluorescence intensity)” is about 10, and the highest 2% start at about 12. Many of the other results were omitted from the sample, so the highest values are more common in it than they were.
experimentalEndpoint: gcPBM binding intensity (ln)
No unit in the answer, only the number.

Consider the following illustrative entries.
GTGTTTTTATTATTTTGTACACATATATTTAATATT [XGTACX_site2109] | 11.5
AACGTGTATTTATATTGTACACATTCATACATCAAA [XGTACX_site3644] | 11.4
ACAATATAGATTAAAAGTACAAATAGTAAATTATAT [XGTACX_site3165] | 11.2
AATCATTTATGGAAAGCATGCTAAATTAGAGTATAC [TGCATGCA_site172] | 10

We next turn to a different sequence, shown below.
stdin: Give its gcPBM binding intensity (ln) value. Item: GCCATAAAGATATATACACACATAAAAAAAAGTTAT [CACACA_site6674]
stdout: 10.1

----------
Tested on: PfAP2-G AP2 domain (GST-tagged)
Experiment: gcPBM binding intensity (ln(normalized median fluorescence intensity)); higher = stronger DNA binding
Whole data set: some 25,000 sequences, median “ln(normalized median fluorescence intensity)” near 10, cut for the highest 2% near 12. The list comes from a sample in which the highest values are over-represented; it also holds close analogues and randomly drawn sequences.
Listed below: gcPBM binding intensity (ln) values for each entry.
Format: numeric value only, no unit, no commentary.

TTAAAATTAAAATACGTACACACCTTATCTTTTTGG [CACACA_site7982] | 11.6

stdin: Any idea what gcPBM binding intensity (ln) was measured for ATTTTGATAACCGTACGTACATATATATATATATAT [XGTACX_site6605] ?
stdout: 11.8

stdin: gcPBM binding intensity (ln) for ATACGAAGTACGTACACACACTTATATGTTACTAAA [CACACA_site7812] ?
stdout: 11.7

stdin: Can you look up the measured gcPBM binding intensity (ln) of ATAAAAATAAACATACGTACTTACACGAATATACAT [XGTACX_site5989] for me?
stdout: 11.1

stdin: Data request, read-out gcPBM binding intensity (ln), for ATATATATAATAAATACACACATTTATATAGATAAA [CACACA_site3254]
stdout: 9.93

stdin: I have this sequence here, AATTAACCGTGACACACACACATATAAATATAAATA [CACACA_site7790] , and I need its recorded gcPBM binding intensity (ln).
stdout: 10.3

Every entry's value here was drawn from the supplement of paper PMC11417369.
